- Tested on: Fibroblast
- assay-info: Multiplex assay against human fibroblast
- Format: toxicity, cell-based
- measurement-setup: 48 h, 1 µM, compound concentration 1 uM, replicate 2
measurement-type: Population Tubulin-Different-Phenotype (%)
Answer with a number only, understood to be in %.

Use the examples below as a reference point.
CN1C(=O)[C@@H](NC(=O)c2cc3ccccc3[nH]2)N=C(c2ccccc2)c2ccccc21 [DEVAZEPIDE]; 54
CCCCN(CC)c1nc(C)nc2c1c(C)cn2-c1c(C)cc(C)cc1C.Cl; 46
C=CC(=O)Nc1cc(-n2c(=O)ccc3cnc4ccc(-c5ccc(NS(C)(=O)=O)cc5)cc4c32)ccc1C; 21
Cl.NC[C@@H]1O[C@H](C23CC4CC(CC(C4)C2)C3)Cc2c1ccc(O)c2O; 21
C[C@@H](Oc1cc(-n2cnc3ccc(CN4CCN(C)CC4)cc32)sc1C(N)=O)c1ccccc1C(F)(F)F; 34
CCCc1cc(C)[nH]c(=O)c1CNC(=O)c1cc(-c2ccc(N3CCN(C(C)C)CC3)nc2)cc2c1cnn2C(C)C; 73

Which value of Population Tubulin-Different-Phenotype (%) has been reported for CC(C)[C@H](CO)Nc1nc(Nc2cccc(Cl)c2)c2ncn(C(C)C)c2n1 in the records? 34

# input molecule: N#Cc1cccc(C(=O)Nc2cc(-c3ccccc3)nn2-c2ccccc2)c1 ; wanted: its Population Tubulin-Different-Phenotype (%) 57

Entry CC(/C=C1\SC(=S)N(CCCC(=O)Nc2ccc(C(=O)O)c(O)c2)C1=O)=C\c1ccccc1 has what Population Tubulin-Different-Phenotype (%)? 35

====

- System: HEK-293T
- assay-info: Incucyte cell viability with HEK293T; note: filed as whole numbers so only -1 and 0 and 1 occur
- Type: toxicity, cell-based
- measurement-setup: human, 18 h, 10 µM, compound concentration 10 uM, replicate number 1, timepoint 18 hours
Measured Growth Rate accompanies every entry in the list below.
Form rule: numeric answer, no unit written next to it.

CN1CCN(c2ccc(-c3cccc(CN4CCOCC4)c3)cc2NC(=O)c2c[nH]c(=O)cc2C(F)(F)F)CC1; 1
Cn1cc(Cl)c2c(Oc3c(F)cc(Nc4cc(Cl)nc(N)n4)cc3F)ccnc21; 1
O=C(N1CCS(=O)(=O)CC1)N1C[C@H](c2ccc(OC(F)(F)F)cc2)C[C@H](c2nc(C3CC3)no2)C1; 0
CC(C)(Cc1ccccc1)NCC(O)c1ccc(O)c(NS(C)(=O)=O)c1.Cl (stereo unspecified) [ZINTEROL HYDROCHLORIDE]; 1
COc1ccc(Br)cc1S(=O)(=O)NC(=O)/C=C/c1ccccc1Cc1ccc2ccccc2c1; 0
Cc1ccc(NC(=O)Nc2cc(C(F)(F)F)ccc2F)cc1Nc1ccc2c(c1)NC(=O)/C2=C\c1ccc[nH]1; 0
CC(C)c1ccc(CC(=O)N2CCC[C@@H](c3cccc(OC(C)(C)C(=O)O)c3)C2)cc1; 0
CC[C@@H]1C(=O)N(C)c2cnc(Nc3ccc(C(=O)N[C@H]4CC[C@H](N5CCN(CC6CC6)CC5)CC4)cc3OC)nc2N1C(C)C; 0

What does the record list as Growth Rate for CCOC(=O)CCNc1cc(N2CCc3ccccc3CC2)nc(-c2ccccn2)n1 ? 0

Could you tell me which Growth Rate is on file for OCCn1cc(-c2ccc3c(c2)CCC3=NO)c(-c2ccncc2)n1 ? 0

So what does the record say about Growth Rate for Cc1cc(OCC(=O)O)cc(C)c1Cc1ccc(O)c(C(C)C)c1 ? 0

Where these numbers come from: ChEMBL document CHEMBL4689842
